Quick reference: slope of the listed items.
# target_of_assay: Alpha-2C adrenergic receptor (Homo sapiens) (UniProt P18825)
# Sequence (P18825 whole entry, looked up): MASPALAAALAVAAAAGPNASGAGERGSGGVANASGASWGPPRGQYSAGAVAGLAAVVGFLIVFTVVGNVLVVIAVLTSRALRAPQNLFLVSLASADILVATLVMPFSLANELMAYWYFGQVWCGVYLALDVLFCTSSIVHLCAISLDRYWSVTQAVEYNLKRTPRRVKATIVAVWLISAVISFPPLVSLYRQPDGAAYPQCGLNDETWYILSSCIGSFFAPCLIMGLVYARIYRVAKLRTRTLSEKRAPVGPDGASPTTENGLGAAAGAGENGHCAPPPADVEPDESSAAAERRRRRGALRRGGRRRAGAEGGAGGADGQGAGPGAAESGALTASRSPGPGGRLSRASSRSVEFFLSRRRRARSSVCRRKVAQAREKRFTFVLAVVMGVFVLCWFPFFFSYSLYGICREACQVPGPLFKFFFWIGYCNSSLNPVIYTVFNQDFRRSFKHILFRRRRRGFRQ
# assay: compounds altering alpha2C-coupled GIRK flux – cell-based, HEK293 alpha2C/GIRK1/2, thallium flux, primary screen (AID 624);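 also: slope of fluorescence ratio to pre-addition baseline per second over 15 to 24 s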
# assay_conditions: thallium flux BTC fluorescence, at 10 µM, actives lie on both sides
Enter the number alone.

COc1ccc(S(=O)(=O)Cc2ccc(C(=O)N3CCOCC3)o2)cc1 = 0.0067

Give a short answer stating reported slope for O=C(NCC1CCCO1)c1cccc(N2C(=O)C3C4C=CC(C4)C3C2=O)c1 (stereo unspecified) .
0.00583

Give a short answer stating reported slope for `COc1ccccc1N1CCN(C(=O)CSc2nc3ncnc(N)c3[nH]2)CC1` .
0.00625

* * *

# target_of_assay: Muscarinic acetylcholine receptor M4 (Homo sapiens) (UniProt P08173)
# Sequence (P08173 whole entry, looked up): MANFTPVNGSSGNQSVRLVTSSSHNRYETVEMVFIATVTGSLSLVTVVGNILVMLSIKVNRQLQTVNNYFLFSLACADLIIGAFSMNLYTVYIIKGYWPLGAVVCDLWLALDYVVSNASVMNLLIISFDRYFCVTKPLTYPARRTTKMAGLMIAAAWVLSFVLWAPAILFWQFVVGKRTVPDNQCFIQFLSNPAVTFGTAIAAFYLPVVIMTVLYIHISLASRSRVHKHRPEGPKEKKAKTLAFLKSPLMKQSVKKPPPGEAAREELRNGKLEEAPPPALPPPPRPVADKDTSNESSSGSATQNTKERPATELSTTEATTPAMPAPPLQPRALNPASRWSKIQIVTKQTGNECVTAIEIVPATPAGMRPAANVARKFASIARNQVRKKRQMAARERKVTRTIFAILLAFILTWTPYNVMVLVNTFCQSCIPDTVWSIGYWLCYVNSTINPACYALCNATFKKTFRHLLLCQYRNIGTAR
# assay: M4-linked GIRK flux change, two-sided – cell-based, HEK293 M4/GIRK, thallium flux, BTC-AM, M4 allosteric agonist project, primary screen (AID 625);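 also: thallium influx through GIRK channels coupled to M4 in HEK293 cells with BTC-AM dye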
# assay_conditions: at 10 µM, actives lie on both sides
Quick reference: fluorescence slope of the listed items.
Enter the number alone.

Solved entries (count: 4):
COc1ccc(C2CC(=O)c3c(C)nc(N4CCN(c5ccccc5)CC4)nc3C2)cc1 (configuration not stated) = 0.00457
Cc1ccc(C)c(N2CCN(C(=O)c3ccc(CS(=O)(=O)c4ccccc4C)o3)CC2)c1 = 0.00481
CC(=O)N1C(=O)N(C)C2C1N(C(C)=O)C(=O)N2C (configuration not stated) = 0.00666
COc1ccc(N2CCC(CNS(=O)(=O)c3cccc(C(F)(F)F)c3)C2)cc1 (configuration not stated) = 0.00389

Give a short answer stating reported fluorescence slope for `N#Cc1nc(-c2ccc(Cl)cc2)oc1NCCc1ccccn1` .
0.00656

Give a short answer stating reported fluorescence slope for `CCC(=O)Oc1ccc2c(C)cc(=O)oc2c1C` .
0.00649

Give a short answer stating reported fluorescence slope for `COCC(=O)N(Cc1ccc(OC)cc1)Cc1nc2ccccc2c(=O)[nH]1` .
0.00687

Give a short answer stating reported fluorescence slope for `FC(F)(F)c1nnc2ccc(NCn3nnc4ccccc43)nn12` .
0.00533

Give a short answer stating reported fluorescence slope for `O=C(Nc1ccccc1)c1cccnc1N1CCOCC1` .
0.00425

* * *

Quick reference: inhibition of the listed items.
# assay: inhibitors of TNFa-induced NFkB p65 translocation, primary screen, imaging, HUVEC, MLSMR starter and 10KST1 sets (AID 438);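 also: compound added about 3h40 before a 20 min TNFalpha stimulation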;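 as to inhibition: signal is the nuclear over cytoplasmic p65 intensity ratio per well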
# assay_conditions: HUVEC TNFa-induced p65 nuclear translocation; at 2 µM, stronger effect = higher value, 0% TNFa-plus-vehicle, 100% no-TNFa wells
Field format: number, assumed %, no unit text.

O=C(CCCn1c(=S)[nH]c2cc3c(cc2c1=O)OCO3)N1CCN(c2ccccc2F)CC1 = -9.1
Cn1c(-c2ccccc2)cnc1SCc1nc2ccccc2c(=O)[nH]1 = 0.8
COc1ccc(S(=O)(=O)Nc2cccc(C)n2)c2ccccc12 = 6.1
Cc1cc(C(=O)COc2cccc3cccnc23)c(C)n1C = 1.8
Cc1nn(-c2ccccc2)c2c1C(O)n1c(nc3ccccc31)S2 (stereo not drawn) = 2.5
O=C(COc1ccc(F)cc1)Nc1ccc(-n2cnnn2)cc1 = 1.1
CCCNC(=O)c1c(N)n(-c2cc(OC)cc(OC)c2)c2nc3ccccc3nc12 = -7
COc1ccccc1N1CCN(C(=O)CSc2nc3ncnc(N)c3[nH]2)CC1 = -8.8
COC(=O)[C@H](CCSC)NC(=O)Nc1cc(C)ccc1C = -7.4
COc1ccc(-c2noc(-c3ccccc3C(=O)Nc3cccnc3)n2)cc1 = 6.7

Give a short answer stating reported inhibition for `O=C(COC(=O)CCOc1ccccc1)Nc1ccc(Cl)cn1` .
5.7

Give a short answer stating reported inhibition for COc1ccc(-c2nnc(SC(C)C(=O)Nc3nccs3)n2-c2ccccc2)cc1OC (stereo not drawn) .
-8

Give a short answer stating reported inhibition for Cc1c(NC(=O)c2cnn3c2NC(c2ccco2)CC3C(F)(F)F)c(=O)n(-c2ccccc2)n1C (stereo not drawn) .
-1

Give a short answer stating reported inhibition for `CC(=O)c1c(NCCc2ccccc2)cc(C)oc1=O` .
8.2

Give a short answer stating reported inhibition for `O=S(=O)(Nn1cnnc1)c1ccccc1Cl` .
4.3

* * *

# assay: inhibitors of TNFa-induced NFkB p65 translocation, primary screen, imaging, HUVEC, MLSMR starter and 10KST1 sets (AID 438);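 also: compound added about 3h40 before a 20 min TNFalpha stimulation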
# assay_conditions: HUVEC TNFa-induced p65 nuclear translocation; measured here: nuclei count (cytotoxicity indicator), at 2.08 µM
Values of cell count greater than or equal to 500 map to true; values below map to false.

CC(=O)c1c(C)nn(CC(O)COc2ccc3c(c2)CCC3)c1C (stereo not drawn) = true

Here is the next item to consider.
Check this compound for cell count at or above 500: `Cc1ccc(S(=O)(=O)C2(C(=O)NC3CCCC3)CC2)cc1`
false

* * *

# assay: reduction of polyQ htt aggregates in cells – imaging, exon1htt(103Q)mCFP cells, high-content imaging, primary screen (AID 483);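 also: compound exposure lasted 3 days before fixation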
# assay_conditions: exon1htt(103Q)mCFP cell line, aggregate imaging, at 2 µM
Activity calls are given as the source filed them.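 How the source made its calls: active means visual image review flags a hit and inhibition of aggregation exceeds 20%; inconclusive means visual hit but inhibition at or below 20%; inactive means no hit on visual image review.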
Entry note: the call must match one of active, inactive

CCOc1cc2oc(=O)c3c(c2cc1Cl)CCC3 = inactive
O=C1c2ccccc2C(Nc2ccc3c(c2)OCO3)N1Cc1ccc2c(c1)OCO2 (stereo unspecified) = inactive
COc1ccc(OC)c(Nc2cc(-c3ccccc3)nc(N)n2)c1 = inactive
COc1ccc(CCNC(=O)CSc2nnc(CNc3ccc(Cl)cc3)o2)cc1OC = active
CC(=O)Nc1ccc(NC(=O)c2ccccc2N(C)S(C)(=O)=O)cc1 = inactive

Give the logged outcome of this assay for the following compound: Cc1ccc(NC(=O)CS(=O)CC(=O)NCC2CCCO2)cc1 (stereo unspecified)
inactive

Give the logged outcome of this assay for the following compound: `COc1ccccc1NC1=C(C)C(=O)CC1`
inactive

Give the logged outcome of this assay for the following compound: Cc1occc1-c1nnc(SCC(=O)NCC2CCCO2)n1C (stereo unspecified)
inactive

Give the logged outcome of this assay for the following compound: `O=C(CN1C(=O)CSC1=O)Nc1ccc(N2CCOCC2)cc1`
inactive

Give the logged outcome of this assay for the following compound: COCCn1nnnc1C(c1cc2ccc(OC)cc2[nH]c1=O)N1CCc2ccccc2C1 (stereo unspecified)
inactive

Give the logged outcome of this assay for the following compound: `Cn1c(-c2ccccc2)cnc1SCc1nc2ccccc2c(=O)[nH]1`
inactive

* * *

Quick reference: inhibition of aggregation of the listed items.
# assay: reduction of polyQ htt aggregates in cells – imaging, exon1htt(103Q)mCFP cells, high-content imaging, primary screen (AID 483);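 also: compound exposure lasted 3 days before fixation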
# assay_conditions: exon1htt(103Q)mCFP cell line, aggregate imaging, at 2 µM; stronger effect = higher value
Active and inactive are the calls of the source.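 Rule for the calls: active = visual image review flags a hit and inhibition of aggregation exceeds 20%; inconclusive = visual hit but inhibition at or below 20%; inactive = no hit on visual image review.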

Solved entries (count: 8):
COc1ccc(CNC(=O)CCc2nc(-c3ccccc3F)no2)c(OC)c1 = 19.9% (inactive)
Cc1cc(C)n(CCCNC(=O)c2ccc3c(c2)NC(=O)CS3)n1 = -34.8% (inactive)
Cc1cc(C)c(NC(=O)CSc2nc3c(c(=O)n2C)SC(C)C3)c(C)c1 (stereo unspecified) = -5.9% (inactive)
O=c1[nH]c2cc3c(cc2cc1C(c1nnnn1C1CCCCC1)N1CCSCC1)OCCO3 (stereo unspecified) = -12.4% (inactive)
COc1ccc(-c2nnc(SCc3nnc(-c4ccc(Cl)cc4)o3)n2-c2ccccc2)cc1 = 12.1% (inactive)
Cc1cc(Cl)ccc1OCCCC(=O)N1CCOCC1 = -0.1% (inactive)
COC(=O)c1cccc(NC(=O)CN2CCN(Cc3ccccc3)CC2)c1 = -15.3% (inactive)
CN(Cc1ccccc1)C(=O)c1cc(-c2ccc(Br)cc2)on1 = 14.9% (inactive)

Give a short answer stating reported inhibition of aggregation for `CC1(C)CC(=O)C(CC(=O)NC(=O)NCc2ccccc2)=C(O)C1` .
0.1% (inactive)

Give a short answer stating reported inhibition of aggregation for `Cn1cccc1Cc1nnc(SCC(=O)Nc2ccccc2F)n1CCc1ccccc1` .
7.5% (inactive)

Give a short answer stating reported inhibition of aggregation for `COc1ccccc1C(=O)Nc1ccc(N2CCN(Cc3ccccc3)CC2)cc1` .
23.2% (inactive)

* * *

# assay: blockers of RIG-like receptor reporter activation – cell-based, Sendai virus stimulus, luciferase, 10K MLSCN set, TLR/RLR signaling modifier project, primary screen (AID 602276);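 also: firefly luciferase from ISG56 promoter only with Renilla not read in this screen; 0% = Sendai virus plus DMSO and 100% = medium plus DMSO without virus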
# assay_conditions: HEK293 RL24 IRF3 luciferase reporter, at 10 µM, stronger effect = higher value
The source made the active and inactive calls.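 The calls were made as follows: active = inhibition at or above 50% at 10 µM; inactive = inhibition below 50%.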
measure_name: inhibition

Solved entries (count: 5):
CCCCN(CC)S(=O)(=O)c1ccc2c(c1)CCCN2C(C)=O = 0.955% (inactive)
O=S1(=O)CCC(N=Cc2cc(Br)ccc2O)C1 (stereo not drawn) = 17.3% (inactive)
Cc1ccc(S(=O)(=O)NCCNC(=O)C2CCCNC2=O)cc1 (stereo not drawn) = 16.4% (inactive)
COc1ccc(C(=O)OCC(=O)NCc2ccco2)cc1OC = 17.6% (inactive)
CCOc1ccccc1C1N(c2ccc(F)cc2)C(=O)C2CCCN21 (stereo not drawn) = 13.2% (inactive)

Give a short answer stating reported inhibition for `COc1cc(OC)cc(-n2nnnc2SCC(=O)N2CCCC2)c1` .
15.1% (inactive)

Give a short answer stating reported inhibition for COc1ccccc1N1CCN(S(=O)(=O)CC23CCC(CC2=O)C3(C)C)CC1 (stereo not drawn) .
9.34% (inactive)
